Where do the numbers come from? From ChEMBL document CHEMBL3758163.

TARGET_ENTITY: Insulin-like growth factor 1 receptor (Homo sapiens) (UniProt P08069)
Sequence (P08069 31-736 limits assumed): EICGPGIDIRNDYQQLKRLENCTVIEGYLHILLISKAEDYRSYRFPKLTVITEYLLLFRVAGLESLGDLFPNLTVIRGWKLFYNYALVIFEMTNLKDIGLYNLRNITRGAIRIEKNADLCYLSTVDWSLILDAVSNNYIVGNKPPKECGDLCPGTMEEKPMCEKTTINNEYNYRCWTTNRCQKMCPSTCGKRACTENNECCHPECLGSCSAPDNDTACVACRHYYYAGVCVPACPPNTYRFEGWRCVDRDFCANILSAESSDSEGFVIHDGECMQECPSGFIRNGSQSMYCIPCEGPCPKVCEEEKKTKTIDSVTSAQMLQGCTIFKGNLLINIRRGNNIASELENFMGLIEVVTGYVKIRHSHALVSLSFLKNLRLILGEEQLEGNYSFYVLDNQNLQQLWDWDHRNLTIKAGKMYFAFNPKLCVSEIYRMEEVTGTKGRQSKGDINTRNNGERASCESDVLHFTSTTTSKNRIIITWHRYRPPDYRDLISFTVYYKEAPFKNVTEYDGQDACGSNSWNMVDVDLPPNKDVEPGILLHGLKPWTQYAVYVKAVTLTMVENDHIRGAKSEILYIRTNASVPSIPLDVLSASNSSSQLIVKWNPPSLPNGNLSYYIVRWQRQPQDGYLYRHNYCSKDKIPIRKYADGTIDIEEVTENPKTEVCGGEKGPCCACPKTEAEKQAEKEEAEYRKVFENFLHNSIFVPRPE
Sequence (P08069 741-1367 limits assumed): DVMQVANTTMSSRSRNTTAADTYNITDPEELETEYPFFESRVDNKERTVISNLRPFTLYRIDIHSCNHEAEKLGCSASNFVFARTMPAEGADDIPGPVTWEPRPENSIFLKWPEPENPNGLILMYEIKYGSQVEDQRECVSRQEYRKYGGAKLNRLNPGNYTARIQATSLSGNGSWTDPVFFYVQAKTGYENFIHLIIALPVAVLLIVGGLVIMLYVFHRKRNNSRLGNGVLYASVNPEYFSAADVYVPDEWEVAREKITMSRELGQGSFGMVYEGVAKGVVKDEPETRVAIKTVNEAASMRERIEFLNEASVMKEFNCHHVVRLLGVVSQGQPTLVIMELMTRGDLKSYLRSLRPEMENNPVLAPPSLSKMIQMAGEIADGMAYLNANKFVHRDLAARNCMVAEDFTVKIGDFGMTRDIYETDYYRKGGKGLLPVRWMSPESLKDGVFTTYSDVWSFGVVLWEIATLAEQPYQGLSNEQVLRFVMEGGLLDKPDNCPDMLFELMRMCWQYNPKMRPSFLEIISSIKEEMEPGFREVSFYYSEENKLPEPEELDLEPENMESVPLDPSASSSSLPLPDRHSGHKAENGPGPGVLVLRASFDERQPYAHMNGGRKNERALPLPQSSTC
PROTOCOL_TEXT: Inhibition of IGF1R (unknown origin) at 500 nM
MEASUREMENT_LABEL: inhibition (%)

The cases that follow already have their inhibition on record.
smi=COc1cc(CO)ccc1-c1cc2c(Nc3ccccc3)ncnc2s1 unit_of_measurement=% endpoint_result=-3
smi=C[C@@H](Nc1ncnc2sc(-c3ccc(C(=O)NCCN(C)C)cc3)cc12)c1ccccc1 unit_of_measurement=% endpoint_result=-6
smi=C#Cc1cccc(Nc2ncnc3sc(-c4ccc(CO)cc4OC)cc23)c1 unit_of_measurement=% endpoint_result=-8

A. CN(C)CCNC(=O)c1ccc(-c2cc3c(N[C@H](CO)c4ccccc4)ncnc3s2)cc1
B. COc1ccc(C(=O)NCCN(C)C)cc1-c1cc2c(N[C@H](C)c3ccccc3)ncnc2s1
C. C[C@@H](Nc1ncnc2sc(-c3ccccc3C(N)=O)cc12)c1ccccc1
Kindly order the items shown according to inhibition, from the highest value down. # respond with the labels, arranged in the requested order A, B, C
